# target-of-assay: EP4 (Homo sapiens, UniProt P35408)
# Sequence (P35408 whole entry): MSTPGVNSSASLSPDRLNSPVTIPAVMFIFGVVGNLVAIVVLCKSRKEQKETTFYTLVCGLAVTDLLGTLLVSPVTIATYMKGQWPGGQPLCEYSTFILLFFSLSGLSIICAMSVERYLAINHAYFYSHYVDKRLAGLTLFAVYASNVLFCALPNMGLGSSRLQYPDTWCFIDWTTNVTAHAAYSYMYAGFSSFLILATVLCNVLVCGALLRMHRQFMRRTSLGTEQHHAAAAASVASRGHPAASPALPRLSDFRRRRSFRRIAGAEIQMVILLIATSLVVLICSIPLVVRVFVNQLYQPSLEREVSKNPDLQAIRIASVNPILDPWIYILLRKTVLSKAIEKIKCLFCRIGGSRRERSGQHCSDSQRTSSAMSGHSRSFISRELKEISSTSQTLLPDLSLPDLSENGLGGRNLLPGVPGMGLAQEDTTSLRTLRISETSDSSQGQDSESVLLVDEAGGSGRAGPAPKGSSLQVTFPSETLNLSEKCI

>  <line-notation>
C[C@H](NC(=O)c1c(C(F)(F)F)nn2c1N(Cc1cccc(C(F)(F)F)c1)CC2)c1ccc(C(=O)O)cc1

>  <Ki [nM]>
4.2

$$$$

====

# target-of-assay: EP4 (Homo sapiens)
# protocol-description: EP4 Antagonism by CRE-PLAP Reporter Assay (SE302 cells, PGE2-stimulated)
# setup-conditions: SE302 (HEK293) cells, 3 ng/mL PGE2, overnight; single or multiple assay average values
pIC50: −log10 of the molar value.

>  <molecule>
Cc1nn2c(c1C(=O)N[C@@H](C)c1ccc(C(=O)O)cc1)N(Cc1ccc(Cl)cc1)CC2 [Compound 32]

>  <pIC50>
8.37

$$$$
>  <molecule>
Cc1cccc(CN2CCn3nc(C(F)(F)F)c(C(=O)N[C@@H](C)c4ccc(C(=O)O)cc4)c32)c1 [Compound 18]

>  <pIC50>
9.19

$$$$
>  <molecule>
O=C(O)c1ccc(C2(NC(=O)c3c(C(F)(F)F)nn4c3N(Cc3ccc(Cl)cc3)CC4)CC2)cc1 [Compound 30]

>  <pIC50>
8.87

$$$$
>  <molecule>
Cc1ccccc1CN1CCn2nc(C(F)(F)F)c(C(=O)N[C@@H](C)c3ccc(C(=O)O)cc3)c21 [Compound 19]

>  <pIC50>
8.44

$$$$
>  <molecule>
C[C@H](NC(=O)c1c(C(F)(F)F)nn2c1N(Cc1cc(O)cc(C(F)(F)F)c1)CC2)c1ccc(C(=O)O)cc1 [Compound 77]

>  <pIC50>
9.74

$$$$
>  <molecule>
C[C@H](NC(=O)c1c(C(F)(F)F)nn2c1N(Cc1cccc(C(F)(F)F)c1)CC2)c1ccc(-c2nn[nH]n2)cc1 [Compound 36]

>  <pIC50>
9.51

$$$$
>  <molecule>
COC(=O)c1ccc([C@H](C)NC(=O)c2c(C(F)(F)F)nn3c2N(Cc2ccc(C(F)(F)F)cc2)CC3)cc1 [Compound 2]

>  <pIC50>
8.41

$$$$
>  <molecule>
C[C@H](NC(=O)c1c(C(F)(F)F)nn2c1N(Cc1ccc(OC(F)(F)F)cc1)CC2)c1ccc(C(=O)O)cc1 [Compound 10]

>  <pIC50>
7.90

$$$$
>  <molecule>
Cc1nn2c(c1C(=O)NC1(c3ccc(C(=O)O)cc3)CC1)N(Cc1ccc(C(F)(F)F)cc1)CC2 [Compound 28]

>  <pIC50>
8.06

$$$$
>  <molecule>
C[C@H](NC(=O)c1c(C(F)(F)F)nn2c1N(Cc1cc(C(F)(F)F)cc(C(F)(F)F)c1)CC2)c1ccc(C(=O)O)cc1 [Compound 5]

>  <pIC50>
7.34

$$$$
>  <molecule>
C[C@H](NC(=O)c1c(C(F)(F)F)nn2c1N(Cc1cccc(C(F)(F)F)c1)CC2)c1ccc(C(=O)NS(C)(=O)=O)cc1 [Compound 55]

>  <pIC50>
7.41

$$$$
>  <molecule>
C=Cc1nn2c(c1C(=O)N[C@@H](C)c1ccc(C(=O)O)cc1)N(Cc1cccc(C(F)(F)F)c1)CC2 [Compound 92]

>  <pIC50>
8.27

$$$$
>  <molecule>
C[C@H](NC(=O)c1c(C(F)(F)F)nn2c1N(Cc1ccc(N(C)C)cc1)CC2)c1ccc(C(=O)O)cc1 [Compound 88]

>  <pIC50>
7.73

$$$$
>  <molecule>
C[C@H](NC(=O)c1c(C(F)(F)F)nn2c1N(Cc1cccc(C(F)(F)F)c1)CC2)c1ccc(C(=O)O)c(F)c1 [Compound 25]

>  <pIC50>
8.96

$$$$
>  <molecule>
O=C(O)c1ccc(C2(NC(=O)c3c(C(F)(F)F)nn4c3N(Cc3ccc(C(F)(F)F)cc3)CC4)CC2)cc1 [Compound 29]

>  <pIC50>
8.66

$$$$
>  <molecule>
C[C@H](NC(=O)c1c(C(F)(F)F)nn2c1N(Cc1cccc(C(F)(F)F)c1)CC2)c1ccc(CC(=O)O)cc1 [Compound 26]

>  <pIC50>
8.45

$$$$
>  <molecule>
C[C@H](NC(=O)c1c(CO)nn2c1N(Cc1cccc(C(F)(F)F)c1)CC2)c1ccc(C(=O)O)cc1 [Compound 93]

>  <pIC50>
8.18

$$$$
>  <molecule>
C[C@H](NC(=O)c1c(C(F)(F)F)nn2c1N(Cc1cc(F)cc(C(F)(F)F)c1)CC2)c1ccc(C(=O)O)cc1 [Compound 84]

>  <pIC50>
9.45

$$$$
>  <molecule>
C[C@H](NC(=O)c1c(-c2ccccc2)nn2c1N(Cc1cccc(C(F)(F)F)c1)CC2)c1ccc(C(=O)O)cc1 [Compound 60]

>  <pIC50>
8.12

$$$$
>  <molecule>
Cc1nn2c(c1C(=O)N[C@@H](C)c1ccc(C(=O)O)cc1)N([C@H](C)c1ccc(C(F)(F)F)cc1)CC2 [Compound 35]

>  <pIC50>
7.95

$$$$
>  <molecule>
C[C@H](NC(=O)c1c(C(F)(F)F)nn2c1N(Cc1cccc(C(F)(F)F)c1)CC2)c1ccc(C(=O)NC#N)cc1 [Compound 52]

>  <pIC50>
10.15

$$$$
